Origin of the recorded values: patent US20170008955A1

# Target under test: T1, cSNK:BSA conjugate (bovine, head-to-tail cyclized; conjugated to BSA carrier)
# T1 construct: also called BSA-cSNK
# T1 sequence (P02769 25-607 limits assumed): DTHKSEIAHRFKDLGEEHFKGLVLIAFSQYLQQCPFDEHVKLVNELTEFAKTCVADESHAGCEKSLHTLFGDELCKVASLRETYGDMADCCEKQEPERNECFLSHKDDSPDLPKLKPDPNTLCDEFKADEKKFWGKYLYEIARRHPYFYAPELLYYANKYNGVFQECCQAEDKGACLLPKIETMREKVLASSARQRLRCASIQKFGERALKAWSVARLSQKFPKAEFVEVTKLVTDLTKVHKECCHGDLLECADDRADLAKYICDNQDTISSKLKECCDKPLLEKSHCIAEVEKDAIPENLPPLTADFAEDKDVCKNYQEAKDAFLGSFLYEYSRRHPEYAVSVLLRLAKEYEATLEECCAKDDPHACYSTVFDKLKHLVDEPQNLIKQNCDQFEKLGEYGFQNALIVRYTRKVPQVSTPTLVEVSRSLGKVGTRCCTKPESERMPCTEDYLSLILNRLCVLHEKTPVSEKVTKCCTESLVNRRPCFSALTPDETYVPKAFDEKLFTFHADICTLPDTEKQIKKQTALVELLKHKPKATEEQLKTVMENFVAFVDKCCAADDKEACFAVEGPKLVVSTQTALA
# Test summary: BLI 2:1 fit, site 1; 6.25 nM row
Property label: koff (s⁻¹)
Give bare numbers, in s⁻¹.

Query :: Quick one: koff of rehu5E3-IgG4 (antibody, V domains shown, human IgG4/kappa; also called IgG4 rehu version) VH: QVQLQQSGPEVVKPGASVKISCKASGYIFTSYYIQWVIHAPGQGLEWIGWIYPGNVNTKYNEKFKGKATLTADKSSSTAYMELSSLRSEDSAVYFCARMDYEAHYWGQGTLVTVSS VL: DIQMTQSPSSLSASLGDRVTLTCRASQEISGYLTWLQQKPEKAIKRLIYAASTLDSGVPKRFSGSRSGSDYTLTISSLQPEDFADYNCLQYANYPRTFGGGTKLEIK ?
Result :: 0.000386
